experimental_system: HLA-A*02:06
protocol_description: IEDB peptide-MHC binding, purified MHC/competitive/radioactivity; filed as Kd, often an IC50 or EC50 that approximates it; bounds were set here for any values at or beyond the usual limits of such assays
settings: source organism: Lymphocytic choriomeningitis virus (strain Armstrong)
measured_endpoint: Kd

>>> obs_value("HNASDFYGL")
"≥ 21.7 µM"

---

experimental_system: HLA-A*03:01
protocol_description: IEDB peptide-MHC binding, purified MHC/direct/fluorescence; filed as Kd, often an IC50 or EC50 that approximates it; bounds were set here for any values at or beyond the usual limits of such assays
settings: source organism: Listeria monocytogenes
pKd: −log10 of the molar value.
measured_endpoint: pKd

>>> obs_value("LLARFGLEK")
7.85

---

Entries and their measured Kd follow.
experimental_system: HLA-B*57:01
protocol_description: IEDB peptide-MHC binding, purified MHC/direct/fluorescence; filed as Kd, often an IC50 or EC50 that approximates it; bounds were set here for any values at or beyond the usual limits of such assays
settings: source organism: Giardia lamblia ATCC 50803
measured_endpoint: Kd

>>> obs_value("RTHEESLRL")
"2080 nM"
>>> obs_value("QLKQRDALF")
"1460 nM"
>>> obs_value("HSSVAGGLW")
"53.5 nM"

---

experimental_system: HLA-B*39:01
protocol_description: IEDB peptide-MHC binding, purified MHC/competitive/fluorescence; filed as Kd, often an IC50 or EC50 that approximates it; bounds were set here for any values at or beyond the usual limits of such assays
settings: source organism: Vibrio vulnificus YJ016
measured_endpoint: Kd

>>> obs_value("YQRALHTSI")
"395 nM"

---

experimental_system: HLA-A*11:01
protocol_description: IEDB peptide-MHC binding, purified MHC/competitive/radioactivity; filed as Kd, often an IC50 or EC50 that approximates it; bounds were set here for any values at or beyond the usual limits of such assays
settings: source organism: Vaccinia virus WR
pKd: −log10 of the molar value.
measured_endpoint: pKd

>>> obs_value("GTSNWTGNY")
8.97
>>> obs_value("KSDAKRNSK")
6.05
>>> obs_value("TFIMLEGETK")
7.93
>>> obs_value("YSHLLPTQR")
5.93
>>> obs_value("ETKITFALKK")
7.03
>>> obs_value("PLYIDISDVK")
5.04
>>> obs_value("PSTVKTNLY")
5.17
>>> obs_value("FSNTILLSDK")
8.71
>>> obs_value("HLKVALYRR")
5.02
>>> obs_value("TLDQLEDSEY")
5.77
>>> obs_value("FINFFNLLAK")
9.56

---

experimental_system: HLA-A*31:01
protocol_description: IEDB peptide-MHC binding, purified MHC/competitive/radioactivity; filed as Kd, often an IC50 or EC50 that approximates it; bounds were set here for any values at or beyond the usual limits of such assays
settings: source organism: Hepacivirus hominis
pKd: −log10 of the molar value.
measured_endpoint: pKd

>>> obs_value("RNWAHSSL")
4.75

---

experimental_system: HLA-A*30:02
protocol_description: IEDB peptide-MHC binding, purified MHC/competitive/radioactivity; filed as Kd, often an IC50 or EC50 that approximates it; bounds were set here for any values at or beyond the usual limits of such assays
settings: source organism: Dengue virus 1 Brazil/97-11/1997
Entries and their measured log10(Kd) follow.
measured_endpoint: log10(Kd) (log10 of the value in µM)

>>> obs_value("TWHYDEDNPY")
0.49
>>> obs_value("VAIDLDPVVY")
-0.08
>>> obs_value("SVKKDLISY")
-1.58
>>> obs_value("QLSKSEFNTY")
-1.15
>>> obs_value("IAGGMLIACY")
-0.38
>>> obs_value("RTPQDNQLAY")
-0.57
>>> obs_value("AVLMLVAHY")
-2.66
>>> obs_value("KSAAIDGEY")
-0.15
